# tested on: AChE (Electrophorus electricus)
# Construct: purchased Sigma Aldrich
# Sequence (O42275 24-633): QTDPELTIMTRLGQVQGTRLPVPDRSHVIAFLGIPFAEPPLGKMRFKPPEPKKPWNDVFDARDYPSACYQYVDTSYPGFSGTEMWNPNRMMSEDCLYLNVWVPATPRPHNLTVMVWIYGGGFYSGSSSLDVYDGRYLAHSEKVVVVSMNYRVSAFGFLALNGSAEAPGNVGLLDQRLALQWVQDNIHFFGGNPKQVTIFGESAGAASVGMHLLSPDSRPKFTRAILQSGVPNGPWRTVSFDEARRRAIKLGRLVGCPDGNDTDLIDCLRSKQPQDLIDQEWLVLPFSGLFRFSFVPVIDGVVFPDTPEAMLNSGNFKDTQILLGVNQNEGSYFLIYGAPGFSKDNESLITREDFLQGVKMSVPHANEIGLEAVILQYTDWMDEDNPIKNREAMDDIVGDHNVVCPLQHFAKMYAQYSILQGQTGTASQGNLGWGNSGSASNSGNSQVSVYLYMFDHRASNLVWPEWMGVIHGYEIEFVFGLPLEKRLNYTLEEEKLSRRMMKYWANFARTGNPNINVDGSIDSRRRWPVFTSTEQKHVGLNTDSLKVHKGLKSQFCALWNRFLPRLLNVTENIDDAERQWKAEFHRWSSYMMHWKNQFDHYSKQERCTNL
# method summary: biochemical
# Type: biochemical
# protocol conditions: inhibition constant against AChE; substrate ATCI at two concentrations
pKi: −log10 of the molar value.
Binary call on pKi: true from 7 upward, false beneath that.

Query: Could you tell me if the measured pKi of COc1ccc2oc(=O)c(C(=O)NCCCCCCNc3c4c(nc5ccccc35)C3(C)CCC4C3(C)C)cc2c1 (stereo not drawn) reaches 7 or more?
Reply: true

Query: Could you tell me if the measured pKi of Cc1ccc2oc(=O)c(C(=O)NCCCCCCNc3c4c(nc5ccccc35)C3(C)CCC4C3(C)C)cc2c1 (stereo not drawn) reaches 7 or more?
Reply: true

Query: Could you tell me if the measured pKi of Cc1ccc2oc(=O)c(C(=O)NCCCCCNc3c4c(nc5ccccc35)C3(C)CCC4C3(C)C)cc2c1 (stereo not drawn) reaches 7 or more?
Reply: false

Ref: paper PMC9000719
